tested system: Mas-related G-protein coupled receptor member X1 (Homo sapiens)
measurement description: MrgX1 activation via calcium signaling – HEK293 cells, Fluo-4 calcium flux, primary screen (AID 588627)
cond: Fluo-4 calcium fluorescence, agonist mode, at 10 µM
Screen size: about 310,000 compounds; about 1,400 (0.45%) were called active.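 The calls were made as follows: active = calcium response B-score plate-corrected fluorescence ratio at least 3 library SD, with starting fluorescence B-score inside 5 SD; inactive = the rest.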 The sample holds actives, similar compounds and a random draw of the others, so the mix is not that of the screen.
Outcome (select one): active, inactive

Check out these entries, answers already filled in.
| compound | label |
| --- | --- |
| c1ccc2c(CSCc3nc4ccccc4[nH]3)cccc2c1 | inactive |
| CN(c1cccc(NC(=O)Nc2ccc(Cl)cc2)c1)S(C)(=O)=O | inactive |
| CCS(=O)(=O)n1nc(-c2ccccc2)nc1SCc1ccccc1 | active |
| CC(C)CC(=O)NC(=S)NNC(=O)c1cccc([N+](=O)[O-])c1 | active |
| CN(C)c1ccnc2sc(C(=O)c3ccccc3)c(N)c12 | inactive |
| Cn1c(=O)c2cc(S(=O)(=O)NCCC(=O)Nc3ccc(F)cc3F)ccc2n(C)c1=O | inactive |
| O=C(Nc1cccc(Cl)c1)Nc1ccccc1NS(=O)(=O)c1cccs1 | inactive |
| CN(Cc1ccccc1)C(=O)CCc1ccccc1 | inactive |

Ask: Call for entry COc1ccc(C(C[N+](=O)[O-])n2nc(C)cc2C)cc1 (stereo unspecified) :
Reply: active

Ask: Call for entry CC(C)CCN1NC2(CCC(C)CC2)NC1=S (stereo unspecified) :
Reply: inactive

Ask: Call for entry C/C(=N\NC(=O)c1ccc2ccccc2c1)c1cccnc1 :
Reply: inactive

---

tested system: Mas-related G-protein coupled receptor member X1 (Homo sapiens) (UniProt Q96LB2)
Sequence (Q96LB2 whole entry, looked up): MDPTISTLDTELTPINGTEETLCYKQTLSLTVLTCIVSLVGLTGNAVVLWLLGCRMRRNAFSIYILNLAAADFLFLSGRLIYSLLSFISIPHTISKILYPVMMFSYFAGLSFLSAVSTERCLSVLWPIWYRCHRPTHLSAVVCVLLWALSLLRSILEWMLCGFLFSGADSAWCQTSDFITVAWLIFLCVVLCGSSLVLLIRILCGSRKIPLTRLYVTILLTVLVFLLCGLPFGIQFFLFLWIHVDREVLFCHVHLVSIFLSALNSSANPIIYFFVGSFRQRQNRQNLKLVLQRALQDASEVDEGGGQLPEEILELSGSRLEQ
measurement description: MrgX1 activation via calcium signaling – HEK293 cells, Fluo-4 calcium flux, primary screen (AID 588627)
cond: Fluo-4 calcium fluorescence, agonist mode, at 10 µM
In all, about 310,000 compounds went through this assay and about 1,400 (0.45%) were called active.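 How the source made its calls: active means calcium response B-score plate-corrected fluorescence ratio at least 3 library SD, with starting fluorescence B-score inside 5 SD; inactive means the rest.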 The list comes from a sample in which actives are over-represented; it also holds close analogues and randomly drawn compounds.
Outcome (select one): active, inactive

Check out these entries, answers already filled in.
| structure as smiles | tested system | label |
| --- | --- | --- |
| COc1ccc(-n2nc(C(=O)NCC(=O)N3CCC(C(N)=O)CC3)c3ccccc3c2=O)cc1OC | Mas-related G-protein coupled receptor member X1 (Homo sapiens) (UniProt Q96LB2) | inactive |
| O=C(Nc1ccccc1)c1nnsc1S(=O)(=O)c1ccc(Cl)cc1 | Mas-related G-protein coupled receptor member X1 (Homo sapiens) (UniProt Q96LB2) | active |
| Cc1cccc(-c2nc3c(c(SCC(=O)N4CCOCC4)n2)CCCC3)c1 | Mas-related G-protein coupled receptor member X1 (Homo sapiens) (UniProt Q96LB2) | inactive |

Ask: Call for entry Cc1nc2sc(C(=O)c3ccccc3)c(N)c2c2c1CCCC2 :
Reply: inactive

Ask: Call for entry Nc1c(C(=O)c2cccs2)sc2nsc(SCCN3CCCCC3)c12 :
Reply: active

Hey, just so you know, these numbers are from PubChem BioAssay AID588627.
